molecular target: SMARCA2-HiBiT HeLa cells (protein which is expressed from the SMARCA2 gene) (Homo sapiens, UniProt P51531); construct: protein which is expressed from the SMARCA2 and SMARCA4 genes; host or cells: HeLa (SMARCA2-HiBiT engineered line); experiment: SMARCA2 degradation assay (HiBiT-fusion HeLa cell line, 24 h, luminescence); type: cell-based; conditions: 1 μM
Sequence (P51531 whole entry, the tested form may be a part): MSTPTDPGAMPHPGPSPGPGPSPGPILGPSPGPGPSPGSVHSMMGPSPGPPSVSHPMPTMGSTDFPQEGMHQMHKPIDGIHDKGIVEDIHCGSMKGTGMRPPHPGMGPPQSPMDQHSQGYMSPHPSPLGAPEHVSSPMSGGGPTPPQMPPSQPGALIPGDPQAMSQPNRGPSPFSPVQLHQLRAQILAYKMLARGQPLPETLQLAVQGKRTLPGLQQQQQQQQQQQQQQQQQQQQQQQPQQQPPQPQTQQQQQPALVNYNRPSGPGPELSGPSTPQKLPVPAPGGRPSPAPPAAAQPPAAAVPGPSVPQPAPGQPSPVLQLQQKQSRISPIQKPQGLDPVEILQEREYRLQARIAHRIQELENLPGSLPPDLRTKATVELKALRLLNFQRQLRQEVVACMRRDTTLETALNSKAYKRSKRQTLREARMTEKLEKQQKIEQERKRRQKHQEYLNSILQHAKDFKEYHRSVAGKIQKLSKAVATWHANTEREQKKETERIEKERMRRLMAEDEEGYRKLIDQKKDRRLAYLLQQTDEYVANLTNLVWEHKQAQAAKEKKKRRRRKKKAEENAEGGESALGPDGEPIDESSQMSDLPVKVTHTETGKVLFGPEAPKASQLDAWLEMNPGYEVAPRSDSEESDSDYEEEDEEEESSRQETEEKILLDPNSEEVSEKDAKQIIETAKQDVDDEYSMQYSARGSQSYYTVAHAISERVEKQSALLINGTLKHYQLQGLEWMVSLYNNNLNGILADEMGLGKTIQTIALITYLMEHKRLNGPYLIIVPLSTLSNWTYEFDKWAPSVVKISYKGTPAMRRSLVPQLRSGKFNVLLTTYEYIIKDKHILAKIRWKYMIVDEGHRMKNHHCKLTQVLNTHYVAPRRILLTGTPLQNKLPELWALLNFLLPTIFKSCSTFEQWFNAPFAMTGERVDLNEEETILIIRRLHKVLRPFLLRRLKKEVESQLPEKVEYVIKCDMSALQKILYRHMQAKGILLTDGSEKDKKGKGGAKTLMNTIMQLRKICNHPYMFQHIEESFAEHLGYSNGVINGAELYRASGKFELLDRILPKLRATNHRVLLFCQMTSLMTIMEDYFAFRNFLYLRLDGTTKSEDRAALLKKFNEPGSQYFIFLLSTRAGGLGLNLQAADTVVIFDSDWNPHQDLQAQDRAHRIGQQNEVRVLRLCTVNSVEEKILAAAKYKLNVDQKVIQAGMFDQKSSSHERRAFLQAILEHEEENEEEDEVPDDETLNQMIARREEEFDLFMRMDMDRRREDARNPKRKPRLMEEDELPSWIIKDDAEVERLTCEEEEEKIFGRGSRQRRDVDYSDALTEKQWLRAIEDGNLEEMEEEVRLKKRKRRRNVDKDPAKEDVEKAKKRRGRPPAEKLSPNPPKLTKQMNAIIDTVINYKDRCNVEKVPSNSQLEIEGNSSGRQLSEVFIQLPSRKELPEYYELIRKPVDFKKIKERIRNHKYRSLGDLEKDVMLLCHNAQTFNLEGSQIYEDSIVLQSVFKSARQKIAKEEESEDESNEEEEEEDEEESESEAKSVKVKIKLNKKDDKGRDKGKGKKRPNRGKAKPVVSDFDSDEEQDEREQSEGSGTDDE
Measurement Name: SMARCA2 % Degradation @ 1 μM

Solved cases below.
N#Cc1ccc(N2C3CCC2CN(c2cnnc(-c4ccccc4O)c2)C3)nc1C#CCN1CC[C@H](F)C1; ++ (++=30-70%)
C[C@@H]1CCN(c2cc(-c3ccccc3O)nnc2N)CCN1c1ccc(C#N)c(C#CCN2CC3CC2C3)n1; +++ (+++=>70%)
C[C@@H]1CCN(c2cc(-c3ccccc3O)nnc2N)CCN1c1ccc(C#N)c(C#CCN(C)C)n1; ++ (++=30-70%)
CN(C)CC#Cc1cc(N2C3CCC2CN(c2cc(-c4ccccc4O)nnc2N)CC3)ccn1 (stereo not drawn); +++ (+++=>70%)
C[C@H]1CCN(c2cc(-c3ccccc3O)nnc2N)CCN1c1ccc(C#N)c(C#CCN(C)CC(F)(F)F)n1; ++ (++=30-70%)
C[C@@H]1CCN1CC#Cc1cc(N2CCN(c3cc(-c4ccccc4O)nnc3N)CC[C@H]2C)ccn1; +++ (+++=>70%)
CN(C)CC#Cc1nccc(N2C3CCC2CN(c2cnnc(-c4ccccc4O)c2)C3)n1; ++ (++=30-70%)
C[C@@H]1CCN(c2cc(-c3ccccc3O)nnc2N)CCN1c1ccnc(C#CC2CCC2)c1; ++ (++=30-70%)
C[C@@H]1CCN(c2cc(-c3ccccc3O)nnc2N)CCN1c1ccnc(C#CCN2CC3CC2C3)c1; +++ (+++=>70%)
C[C@@H]1CCN(c2cc(-c3ccccc3O)nnc2N)CCN1c1ccc(C#N)c(C#CCn2ccnc2)n1; +++ (+++=>70%)

Look up SMARCA2 % Degradation @ 1 μM of `C[C@H]1CCN(c2cc(-c3ccccc3O)nnc2N)CCN1c1ccc(C#N)c(C#CCN2CC[C@H](F)C2)n1` and report it.
++ (++=30-70%)

Specify SMARCA2 % Degradation @ 1 μM for `C[C@@H]1CCN(c2cc(-c3ccccc3O)nnc2N)CCN1c1ccnc(C#CCN2CC(F)(F)C2)c1` and stop.
++ (++=30-70%)

Read off the recorded SMARCA2 % Degradation @ 1 μM for `C[C@@H]1CCN(c2cc(-c3ccccc3O)nnc2N)CCN1c1ccnc(C#CC2CC2)c1`
++ (++=30-70%)

For the compound `C[C@@H]1CCN(c2cc(-c3ccccc3O)nnc2N)CCN1c1ccc(C#N)c(C#CCN2CC(F)(F)C2)n1` , report SMARCA2 % Degradation @ 1 μM.
++ (++=30-70%)

Indicate its recorded SMARCA2 % Degradation @ 1 μM; the compound in question is `C[C@@H]1CCN(c2cc(-c3ccccc3O)nnc2N)CCN1c1ccnc(C#CCN(C)C)c1C#N`
++ (++=30-70%)

###

biological target: SMARCA4-HiBiT HeLa cells (protein which is expressed from the SMARCA4 gene) (Homo sapiens); construct: protein which is expressed from the SMARCA2 and SMARCA4 genes; host or cells: HeLa (SMARCA4-HiBiT engineered line); assay: SMARCA4 degradation assay (HiBiT-fusion HeLa cell line, 24 h, luminescence); assay type: cell-based
Sequence (P51532 whole entry, the tested form may be a part): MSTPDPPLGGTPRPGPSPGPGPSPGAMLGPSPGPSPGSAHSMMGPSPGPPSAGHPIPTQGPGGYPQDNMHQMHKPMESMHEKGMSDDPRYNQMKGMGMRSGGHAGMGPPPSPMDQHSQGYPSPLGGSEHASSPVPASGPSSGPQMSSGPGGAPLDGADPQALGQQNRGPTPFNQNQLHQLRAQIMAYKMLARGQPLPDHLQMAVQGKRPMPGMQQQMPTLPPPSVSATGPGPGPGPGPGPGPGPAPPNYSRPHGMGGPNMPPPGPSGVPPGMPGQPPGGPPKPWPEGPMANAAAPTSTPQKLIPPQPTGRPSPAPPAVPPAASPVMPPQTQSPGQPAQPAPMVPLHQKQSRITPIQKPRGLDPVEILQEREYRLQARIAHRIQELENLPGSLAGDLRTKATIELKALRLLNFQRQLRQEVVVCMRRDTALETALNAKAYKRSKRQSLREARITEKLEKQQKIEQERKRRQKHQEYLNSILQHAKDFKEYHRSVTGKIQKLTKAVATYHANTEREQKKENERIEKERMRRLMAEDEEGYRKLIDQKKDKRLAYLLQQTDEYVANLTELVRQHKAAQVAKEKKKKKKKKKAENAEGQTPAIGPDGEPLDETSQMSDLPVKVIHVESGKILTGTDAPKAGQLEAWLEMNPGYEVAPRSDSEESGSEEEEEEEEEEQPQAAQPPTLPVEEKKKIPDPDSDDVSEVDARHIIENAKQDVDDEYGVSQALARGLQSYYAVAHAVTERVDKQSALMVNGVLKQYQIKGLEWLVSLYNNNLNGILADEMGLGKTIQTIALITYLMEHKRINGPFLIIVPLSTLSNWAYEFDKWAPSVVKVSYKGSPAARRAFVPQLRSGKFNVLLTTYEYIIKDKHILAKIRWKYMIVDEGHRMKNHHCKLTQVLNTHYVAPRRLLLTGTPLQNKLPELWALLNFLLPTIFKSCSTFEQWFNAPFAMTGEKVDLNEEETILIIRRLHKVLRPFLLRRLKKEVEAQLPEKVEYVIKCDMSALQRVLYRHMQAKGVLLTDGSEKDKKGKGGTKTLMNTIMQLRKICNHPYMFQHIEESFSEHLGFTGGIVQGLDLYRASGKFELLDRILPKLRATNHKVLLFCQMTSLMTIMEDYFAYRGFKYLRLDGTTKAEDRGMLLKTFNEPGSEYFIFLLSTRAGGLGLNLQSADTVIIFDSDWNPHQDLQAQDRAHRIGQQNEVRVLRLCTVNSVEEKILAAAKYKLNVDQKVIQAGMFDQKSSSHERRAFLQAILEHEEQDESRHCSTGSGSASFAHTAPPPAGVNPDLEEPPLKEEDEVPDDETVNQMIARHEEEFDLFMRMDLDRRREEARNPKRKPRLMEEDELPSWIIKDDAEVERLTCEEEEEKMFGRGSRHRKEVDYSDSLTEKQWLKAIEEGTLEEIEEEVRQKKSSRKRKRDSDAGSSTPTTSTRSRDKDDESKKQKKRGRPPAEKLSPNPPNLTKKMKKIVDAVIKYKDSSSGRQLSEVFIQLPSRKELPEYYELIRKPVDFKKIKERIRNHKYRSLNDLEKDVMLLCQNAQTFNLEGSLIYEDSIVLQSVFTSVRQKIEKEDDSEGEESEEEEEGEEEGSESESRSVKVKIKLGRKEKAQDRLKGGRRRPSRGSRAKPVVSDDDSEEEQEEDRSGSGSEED
# DC50 values compiled below

Nc1nnc(-c2ccccc2O)cc1N1CC2CN(c3ccnc(C#CCNC(=O)c4cc5ncccn5n4)n3)CC2C1 (centres unmarked) [Compound P-41]; 50 to 500 nM
Nc1nnc(-c2ccccc2O)cc1N1CC2CC1CN(c1ccnc(C#CCNC(=O)c3cc4ncccn4n3)n1)C2 (centres unmarked) [Compound P-17]; 500 to 5000 nM
C[C@@H]1CCN(c2cc(-c3ccccc3O)nnc2N)CCN1c1nc(C#CCO)ncc1F [Compound P-207]; 500 to 5000 nM

Look up and report measured DC50 for this entry: Nc1nnc(-c2ccccc2O)cc1N1CCCN(c2ccnc(C#CCN3CCCC3)n2)CC1 [Compound P-366]
50 to 500 nM

Provide only the value of recorded DC50 for C[C@@H]1CN(CC#Cc2nccc(N3CCCN(c4cc(-c5ccccc5O)nnc4N)CC3)n2)C[C@H](c2ccccc2)O1 [Compound P-380]
500 to 5000 nM

Supply reported DC50 belonging to this molecule: CC(C)(C)OC(=O)NC1CCN(CC#Cc2nccc(N3C4CCC3CN(c3cnnc(-c5ccccc5O)c3)C4)n2)CC1 [Compound P-368]
50 to 500 nM

Check the records and state DC50 for N#Cc1ccc(N2C3CCC2CN(c2cnnc(-c4ccccc4O)c2)C3)nc1C#CCN1CC(F)(F)C1 [Compound P-403]
> 5000 nM

Indicate the recorded DC50 value for this molecule: Nc1nnc(-c2ccccc2O)cc1N1CCN(c2ccnc(C#CCNC(=O)c3ccc4ccccc4n3)n2)CC1 [Compound P-64]
50 to 500 nM

Fill in DC50 for record Nc1nnc(-c2ccccc2O)cc1N1CCN(c2ccnc(C#CCNC(=O)c3cc4n(n3)CCC4)n2)CC1 [Compound P-59]
> 5000 nM

Given the molecule C[C@@H]1CCN(c2cc(-c3ccccc3O)nnc2N)CCN1c1ccnc(C#CCOCC2CC(N(C)C)C2)n1 (some centres unmarked) [Compound P-251] , write its reported DC50.
50 to 500 nM

Note DC50 for the molecule shown: Nc1nnc(-c2ccccc2O)cc1N1CCCN(c2ccnc(C#CCNC3CC3)n2)CC1 [Compound P-301]
500 to 5000 nM

// Input: C[C@@H]1CCN(c2cc(-c3ccccc3O)nnc2N)CCN1c1ccnc(C#CCN2[C@H](C)COC[C@@H]2C)c1 [Compound P-422] . Output its DC50 only.
< 50 nM

Provide measured DC50 value, entry: Cc1cc(C)n2ncc(C(=O)NCC#Cc3nccc(N4CCN(c5cc(-c6ccccc6O)nnc5N)CC4)n3)c2n1 [Compound P-70]
50 to 500 nM

Read the entry C[C@@H]1CCN(c2cc(-c3ccccc3O)nnc2N)CCN1c1nc(C#CCNC(=O)OC(C)(C)C)ncc1F [Compound P-248] and write its reported DC50.
500 to 5000 nM
